Attribute: Nagg (chains per nanoparticle)
experiment-description: Static light scattering (Rg, Nagg, shape factor)
Format: physicochemical
conditions-used: nanoparticles, SLS
Counter-ions that a name gives are not always drawn.

Please review the following examples before continuing.
Cl.NCCN1C(=O)C=CC1=O [SMM 2] ... 50
O=C1C=CC(=O)N1O [SMM 1, N-hydroxymaleimide] ... 41
CCN1C(=O)C=CC1=O [SMM 6, N-ethyl maleimide] ... 115
CN1C(=O)C=CC1=O [SMM 5, N-methyl maleimide] ... 62

Record CC(C)(C)N1C(=O)C=CC1=O [SMM 8, N-^tbutyl maleimide] . Reported Nagg (chains per nanoparticle): 93

Record CS(=O)(=O)OCCN1C(=O)C=CC1=O [SMM 3, N-2-Maleimidoethyl mesylate] . Reported Nagg (chains per nanoparticle): 219

Record O=C1C=CC(=O)N1c1ccccc1 [SMM 7, N-Phenyl maleimide] . Reported Nagg (chains per nanoparticle): 112

---

experiment-description: Temperature-programmed turbidimetry (transition temperature Tt)
Assay type: physicochemical
conditions-used: ATBP or ATBP-SMM conjugate in PBS, ATBP concentration 100 μM
Where a name gives a salt, the structure may show the parent alone.
Attribute: Tt, Concentration 100 μM
The answer should read as a number with its unit following.

CC(C)(C)N1C(=O)C=CC1=O [SMM 8, N-^tbutyl maleimide] ... 41 C
CS(=O)(=O)OCCN1C(=O)C=CC1=O [SMM 3, N-2-Maleimidoethyl mesylate] ... 38 C
O=C1C=CC(=O)N1O [SMM 1, N-hydroxymaleimide] ... 41 C
CCN1C(=O)C=CC1=O [SMM 6, N-ethyl maleimide] ... 40 C
Cl.NCCN1C(=O)C=CC1=O ... 41 C

Record O=C1C=CC(=O)N1c1ccccc1 [SMM 7, N-Phenyl maleimide] . Reported Tt, Concentration 100 μM: 41 C

Record CN1C(=O)C=CC1=O [SMM 5, N-methyl maleimide] . Reported Tt, Concentration 100 μM: 42 C

---

experiment-description: SMM conjugation ratio by Ellman's reagent assay
Format: physicochemical
Where a name gives a salt, the structure may show the parent alone.
Attribute: #SMM/ATBP (number of SMM conjugated per ATBP)
The reply should be a number, written without any unit.

Please review the following examples before continuing.
Cl.NCCN1C(=O)C=CC1=O [SMM 2] ... 6.9
CS(=O)(=O)OCCN1C(=O)C=CC1=O [SMM 3, N-2-Maleimidoethyl mesylate] ... 6.9
CCN1C(=O)C=CC1=O [SMM 6, N-ethyl maleimide] ... 7.1

Record CN1C(=O)C=CC1=O [SMM 5, N-methyl maleimide] . Reported #SMM/ATBP (number of SMM conjugated per ATBP): 6.8

Record O=C1C=CC(=O)N1c1ccccc1 [SMM 7, N-Phenyl maleimide] . Reported #SMM/ATBP (number of SMM conjugated per ATBP): 7.0

Cited source for all entries: patent US11135301B2
